- measured.target: T1, K63-Ub2 (Homo sapiens, UniProt P0CG47, K63R)
- T1 construct: Ub and K48- and K63-linked diUb and tetraUb were made as described; made in house
- procedure.summary: Fluorescence anisotropy binding of fluorescent tUIM peptides to K63-Ub2
- test.conditions: fluorescence anisotropy, single-site fit, 25° C., pH 7.4
molecules and their reported Kd
Supply the numeric figure in µM, leaving out any unit text.

molecule	Kd [µM]
Rap80 7A linker: Rap80 UIMs linked by 7 alanine residues (protein) peptide: PSSHHHHHHSSGLVPRGSHMTEEEQFALALKMSEQEAAAAAAAAEEEEELLRKAIAESLNSCRPS	3.6
ataxin-3 Rap80 linker: ataxin-3 UIMs spliced together with the Rap80 linker REVNSQE (protein) peptide: PSSHHHHHHSSGLVPRGSHMDEDEEDLQRALALSRQEIREVNSQEEDEEADLRRAIQLSMQGSSRNC	60
Rap80 DLKAAIQ: Rap80 tUIM peptide, linker DLKAAIQ (protein) peptide: PSSHHHHHHSSGLVPRGSHMTEEEQFALALKMSEQEADLKAAIQEEEEELLRKAIAESLNSCRPS	10
Vps27 (WT): yeast Vps27 tandem UIM peptide with unstructured 25-residue linker (protein) peptide: PSSHHHHHHSSGLVPRGSHMDRDYSTPEDEEELIRKAIELSLKESRNSASSEPIVPVVESKNEVKRQEIEEEEDPDLKAAIQESLREAEEAKLRSERQKAC	67
Vps27 7aa linker: Vps27 UIMs connected with 7-residue linker RAEEKVK (protein) peptide: PSSHHHHHHSSGLVPRGSHMEEEEDPDLKAAIQESLREARAEEKVKEDEEELIRKAIELSLKESRNCA	2.2
Rap80 (WT): His6-tagged human Rap80 tandem UIM peptide, linker REVNSQE, fluorescein-labeled on C121; sequence in Table 1 (protein) peptide: PSSHHHHHHSSGLVPRGSHMTEEEQFALALKMSEQEAREVNSQEEEEEELLRKAIAESLNSC(fluorescein)RPS	21.6
Rap80 ARLEEKV: Rap80 tUIM peptide, linker ARLEEKV (protein) peptide: PSSHHHHHHSSGLVPRGSHMTEEEQFALALKMSEQEAARLEEKVEEEEELLRKAIAESLNSCRPS	17

Note: attention shifts to another entry.
Input: Which measured Kd value corresponds to Rap80 6aa linker: Rap80 tUIM peptide with 6-residue linker REVAAE (protein) peptide: PSSHHHHHHSSGLVPRGSHMTEEEQFALALKMSEQEAREVAAEEEEEELLRKAIAESLNSCRPS ?
Output: 87
